test system: CP269; assay: qHTS profiling for inhibitors of Plasmodium falciparum proliferation (AID 504749); note: nearly all actives have a fitted effect of over 60% in size; conditions: P. falciparum in erythrocytes, SYBR Green DNA, 72 h; series mostly up to 28.7 µM
Results filed as inconclusive are left out. The source made the active and inactive calls. Calls come from the whole dose curve; as a rule, active = well fitted inhibition curve with a large enough effect; inconclusive = small, poorly fitted or top-dose-only effect; inactive = flat fitted curve, though single readings scatter.
Just give me one of these, please: True = active, False = inactive

Worked set:
compound=CN(C)C(=O)Oc1cc(OC(=O)N(C)C)cc([C@@H](O)CNC(C)(C)C)c1 class_label=False
compound=N[C@H]1C[C@H]1c1ccccc1 class_label=False
compound=CC1=C2[C@@H]3OC(=O)[C@@H](C)[C@@H]3CC[C@]2(C)C=CC1=O class_label=False
compound=C[C@H](NC(C)(C)C)C(=O)c1cccc(Cl)c1 class_label=False
compound=O=c1ccc2cc(O[C@H]3O[C@@H](CO)[C@@H](O)[C@@H](O)[C@@H]3O)c(O)cc2o1 class_label=False
compound=C[C@@]12CC[C@H]3[C@@H](CC[C@@H]4C[C@H]5S[C@H]5C[C@]43C)[C@H]1CC[C@H]2O class_label=False
compound="O=C1C=C2C=CC3C[C@@]2(O1)C1CCCCN31 (stereo not given in full)" class_label=True
compound="C[C@]12CC[C@H](OS(=O)(=O)O)CC1=CCC1C2CC[C@]2(C)C(=O)CC[C@@H]12 (stereo not given in full)" class_label=False

Per the assay record, what outcome was assigned to CNc1ccc(C(=O)CC(O)CCC(C)C2OC(=O)CC(O)CC(=O)CC(O)CC(O)CC(O)CC(O)CC3(O)CC(O)C(C(=O)OC)C(CC(O[C@@H]4OC(C)C(O)C(N)C4O)/C=C/C=C/C=C/C=C/C=C/C=C/C=C/C2C)O3)cc1 (stereo not given in full) ?
False

Per the assay record, what outcome was assigned to C[C@H]1CN(C2CCC(C#N)(c3ccc(F)cc3)CC2)CC[C@@]1(C(=O)O)c1ccccc1 (stereo not given in full) ?
False

Per the assay record, what outcome was assigned to CNC(C)[C@@H](O)c1ccc(O)cc1 (stereo not given in full) ?
False

Per the assay record, what outcome was assigned to "CNC[C@H](O)c1ccc(O)cc1" ?
False

Per the assay record, what outcome was assigned to CC([C@H](O)c1ccccc1)N(C)C (stereo not given in full) ?
False

Per the assay record, what outcome was assigned to CC(=O)OC1C[C@H](O[C@@H]2C(O)C[C@H](O[C@@H]3C(O)C[C@@H](OC4CC[C@]5(C)C(CCC6C5CC(O)[C@@]5(C)C(C7=CC(=O)OC7)CC[C@@]65O)C4)OC3C)OC2C)O[C@H](C)[C@H]1O[C@H]1OC(CO)C(O)C(O)C1O (stereo not given in full) ?
False

Per the assay record, what outcome was assigned to C[N+]1([O-])[C@@H]2CC(OC(=O)[C@@H](CO)c3ccccc3)C[C@@H]1[C@H]1O[C@H]12 (stereo not given in full) ?
False

Per the assay record, what outcome was assigned to C[N+]1([O-])[C@@H]2CC[C@H]1CC(OC(=O)[C@@H](CO)c1ccccc1)C2 (stereo not given in full) ?
False

Per the assay record, what outcome was assigned to "C[C@H](N)[C@@H](O)c1ccccc1" ?
False

Per the assay record, what outcome was assigned to "CC(=O)OCC(=O)[C@@H]1CC[C@H]2[C@H]3CC[C@H]4C[C@@H](O)CC[C@]4(C)[C@@H]3C(=O)C[C@@]12C" ?
False

Per the assay record, what outcome was assigned to "C[C@@H]1O[C@H](O[C@@H]2C=C3CC[C@H]4[C@@H](CC[C@]5(C)[C@@H](c6ccc(=O)oc6)CC[C@]45O)[C@@]3(C)CC2)[C@@H](O)[C@H](O)[C@@H]1O" ?
False

Per the assay record, what outcome was assigned to "CC(C)N(CC[C@@](C(N)=O)(c1ccccc1)c1ccccn1)C(C)C" ?
False
